Field: EC50. Provide a value for each of the molecules that follow.
target: UniProtKB U5N1H5; test: In vitro calcium (GCaMP6s) FLIPR assay in HEK293T cells transfected with NPYLR7; format: cell-based; details: sheet Figure 3C; unit inferred; read-out: EC50
Sequence (U5N1H5 entry or part of it): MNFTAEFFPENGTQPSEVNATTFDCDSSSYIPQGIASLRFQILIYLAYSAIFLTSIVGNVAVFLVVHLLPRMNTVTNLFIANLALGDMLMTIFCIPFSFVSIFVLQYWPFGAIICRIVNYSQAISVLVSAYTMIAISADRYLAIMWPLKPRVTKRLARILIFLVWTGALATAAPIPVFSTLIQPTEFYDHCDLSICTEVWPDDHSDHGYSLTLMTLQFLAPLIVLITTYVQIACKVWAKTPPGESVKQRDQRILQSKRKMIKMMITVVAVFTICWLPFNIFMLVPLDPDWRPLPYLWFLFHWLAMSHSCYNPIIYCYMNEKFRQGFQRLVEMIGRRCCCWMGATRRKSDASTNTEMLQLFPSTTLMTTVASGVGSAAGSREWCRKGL
Numbers only; they are read as µM.

Query block: Could you tell me which EC50 is on file for CNc1nc(NC(=N)N)nc2cc(OCc3ccc(OC)cc3)c(OC)cc12 ?
Result block: 0.0175

Query block: Could you tell me which EC50 is on file for Cc1nc(NC(=N)N)nc2cc(OCc3ccc(S(C)(=O)=O)cc3)ccc12 ?
Result block: 0.222

Query block: Could you tell me which EC50 is on file for CCOc1ccc(COc2ccc3c(C)nc(NC(=N)N)nc3c2)cc1 ?
Result block: 6.35

Query block: Could you tell me which EC50 is on file for Cc1nc(NC(=N)N)nc2cc(OCC(F)(F)F)ccc12 ?
Result block: 4.26

Query block: Could you tell me which EC50 is on file for Cc1nc(NC(=N)N)nc2cc(OCC3CC3)ccc12 ?
Result block: 0.912

Query block: Could you tell me which EC50 is on file for Cc1nc(NC(=N)N)nc2cc(OCc3ccc(OC(F)(F)F)cc3)ccc12 ?
Result block: 19.7

Query block: Could you tell me which EC50 is on file for CCOc1cc2c(C)nc(NC(=N)N)nc2cc1OCc1ccccc1 ?
Result block: 8.53

Query block: Could you tell me which EC50 is on file for COc1ccc(COc2ccc3c(C)nc(NC(=N)N)nc3c2)cn1 ?
Result block: 1.32

Query block: Could you tell me which EC50 is on file for Cc1nc(NC(=N)N)nc2cc(OCC3CCCCC3)ccc12 ?
Result block: 4.43

Query block: Could you tell me which EC50 is on file for CCOc1ccc2c(C)nc(NC(=N)N)nc2c1 ?
Result block: 5.6

Hello, the source for this data is paper PMC11212260, in case you need it.
